- TESTED SYSTEM: T1, human CD3 on CD3+ Jurkat cells (human, UniProt P07766 23-207)
- T1 construct: whole, on cells; Native CD3 complex on cells; the other CD3 chains are not specified for this assay; also called Human CD3+ Jurkat
- T1 sequence (P07766 23-207): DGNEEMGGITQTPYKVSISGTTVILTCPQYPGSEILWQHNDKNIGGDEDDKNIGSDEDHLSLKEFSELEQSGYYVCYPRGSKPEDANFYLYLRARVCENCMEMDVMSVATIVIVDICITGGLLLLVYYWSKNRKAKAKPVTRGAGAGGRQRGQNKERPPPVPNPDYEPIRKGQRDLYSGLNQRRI
- PROTOCOL DETAILS: flow cytometry, 100 nM IgG on CD3+ Jurkat cells, pH 7.4
Listing: MFI pH 7.4 of selected binders

BINDER | MFI pH 7.4, MFI
SAD10320_P01_D01 (ADI-48644) (antibody, V domains shown, IgG; also called Ab48) VH: QVQLVQSGAEVKKPGASVKVSCKASGFNIKDYYMHWVRQAPGQRLEWMGWIDLENANTIYDAKFQGRVTITRDTSASTAYMELSSLRSEDTAVYYCARDAYGHGFYDVWGQGTLVTVSS VL: DIVMTQSPDSLAVSLGERATINCKSSQSLLNARTGKNYLAWYQQKPGQPPKLLIYWASTRESGVPDRFSGSGSGTDFTLTISSLQAEDVAVYYCKQSYSHRTFGGGTKVEIK | 124
SAD10320_P02_C04 (ADI-48648) (antibody, V domains shown, IgG; also called Ab71) VH: QVQLVQSGAEVKKPGASVKVSCKASGFNIKDYYMHWVRQAPGQRLEWMGWIDLENANTIYDAKFQGRVTITRDTSASTAYMELSSLRSEDTAVYYCARDAYGRYFYDVWGQGTLVTVSS VL: DIVMTQSPDSLAVSLGERATINCKSSQSLLNARTGKNYLAWYQQKPGQPPKLLIYWASTRESGVPDRFSGSGSGTDFTLTISSLQAEDVAVYYCKQSHTRRTFGGGTKVEIK | 5140
